So I've got a bunch of molecules here, and I need their pIC50 values.
System: SKBR3 (PI3Kα-Wild Type) cell line
Assay: HTRF phospho-AKT(S473) cell assay in SKBR3 cells
Format: cell-based, human
Details: Homo sapiens, SK-BR-3; HTRF phospho-AKT(S473), SKBR3 (PI3Kα-Wild Type) cells, 2 hours compound incubation, PDGF-BB stimulated
Protocol: Compounds in the present disclosure were tested in a cell based HTRF phospho-AKT(S473) (CisBio/Revvity) assay in human breast cancer cell lines as a measurement of PIK3CA activity through measuring AKT, a downstream effector. The activity of mutant PI3Kα-H1047R and PI3Kα-Wild Type was measured in the T47D (PI3Kα-H1047R) and SKBR3 (PI3Kα-Wild Type) cell lines, respectively. […] The following day, plates were centrifuged for 1 minute at 1000 rpm, and read on a PHERAstar plate reader. […]
pIC50: −log10 of the molar value.

Example cases with answers are listed next.
1) Cc1cc([C@@H](C)Nc2ccc(Cl)nc2C(=O)NS(C)(=O)=O)c2nc(N3CCC(c4n[nH]cc4Cl)CC3)n(C)c(=O)c2c1    ≤ 5.30
2) Cc1cc([C@@H](C)Nc2ccc(Cl)nc2C(=O)NS(C)(=O)=O)c2nc(N3CCN(c4ccnc(C5CC5)n4)CC3)n(C)c(=O)c2c1    5.30 to 6.00

Kindly note the recorded pIC50 for Cc1cc([C@@H](C)Nc2ccc(Cl)nc2C(=O)NS(C)(=O)=O)c2nc(N3C[C@@H]4[C@H](C3)[C@H]4c3nnn(C)n3)n(C)c(=O)c2c1 , which is 5.30 to 6.00

---

System: T47D (PI3Kα-H1047R) cell line
Experiment: HTRF phospho-AKT(S473) cell assay in T47D cells
Assay type: cell-based, human
Conditions: Homo sapiens; HTRF phospho-AKT(S473), T47D (PI3Kα-H1047R) cells, 2 hours compound incubation
pIC50: −log10 of the molar value.
measured-quantity: pIC50

Example cases with answers are listed next.
1. Cc1cc([C@@H](C)Nc2ccc(Cl)nc2C(=O)NS(C)(=O)=O)c2nc(N3C[C@@H]4C[C@H]3CN4c3nccnc3C)n(C)c(=O)c2c1    6.30 to 6.60
2. COCCn1ncc(F)c1C1CCN(c2nc3c([C@@H](C)Nc4ccc(Cl)nc4C(=O)NS(C)(=O)=O)cc(C)cc3c(=O)n2C)CC1    > 6.60
3. Cc1cc([C@@H](C)Nc2ccc(Cl)nc2C(=O)NS(C)(=O)=O)c2nc(N3C[C@H]4C[C@@]4(c4cnc(C)nc4)C3)n(C)c(=O)c2c1 (relative stereo)    6.30 to 6.60
4. Cc1cc([C@@H](C)Nc2ccc(Cl)nc2C(=O)NS(C)(=O)=O)c2nc(N3C[C@@H]4[C@H](C3)[C@H]4c3cnc(C)nc3)n(C3CC3)c(=O)c2c1    6.30 to 6.60
5. Cc1cc([C@@H](C)Nc2ccc(Cl)nc2C(=O)NS(C)(=O)=O)c2nc(N3CCC(n4ncnc4C)CC3)n(C)c(=O)c2c1    > 6.60

Count: 7. Required value per item: pIC50.
1. Cc1cc([C@@H](C)Nc2ccc(Cl)nc2C(=O)NS(C)(=O)=O)c2nc(N3CCC(c4nnc(C)o4)CC3)n(C)c(=O)c2c1
2. Cc1cc([C@@H](C)Nc2ccc(Cl)nc2C(=O)NS(C)(=O)=O)c2nc(N3C[C@@H]4C[C@H]3CN4c3cnc(C)cn3)n(C)c(=O)c2c1
3. Cc1cc([C@@H](C)Nc2ccc(Cl)nc2C(=O)NS(C)(=O)=O)c2nc(N3CCC(c4csc(C)n4)CC3)n(C)c(=O)c2c1
4. [2H]C([2H])([2H])n1ccc([C@H]2[C@@H]3CN(c4nc5c([C@@H](C)Nc6ccc(Cl)nc6C(=O)NS(C)(=O)=O)cc(C)cc5c(=O)n4C4CC4)C[C@@H]32)n1
5. CCn1cc(F)c(C2CCN(c3nc4c([C@@H](C)Nc5ccc(Cl)nc5C(=O)NS(C)(=O)=O)cc(C)cc4c(=O)n3C)CC2)n1
6. Cc1cc([C@@H](C)Nc2ccc(Cl)nc2C(=O)NS(C)(=O)=O)c2nc(N3CCC(c4ncn(C(C)C)n4)CC3)n(C)c(=O)c2c1
7. Cc1cc([C@@H](C)Nc2ccc(Cl)nc2C(=O)NS(C)(=O)=O)c2nc(N3C[C@@H]4CC4(c4cnc(C)nc4)C3)n(C)c(=O)c2c1 (relative stereo)

6.30 to 6.60
6.30 to 6.60
> 6.60
6.30 to 6.60
6.30 to 6.60
6.30 to 6.60
6.00 to 6.30
